Tested on: barnyardgrass (Echinochloa crus-galli)
Test: Test A preemergence
Type: in vivo
Conditions: Echinochloa crus-galli, pre-emergence, 240 h, 500 g ai/ha, preemergence; visual injury rating about 10 d after treatment, 0 to 100 scale (0 no effect, 100 complete control); read-out: Barnyardgrass plant response rating
pest or weed control at 500 g/ha overview
Report as: number unit

Examples with answers:
>  <MOLECULE>
CN1CC[C@H](c2ccccc2)[C@@H](C(=O)Nc2ccccc2F)C1=O [Compound 1032]

>  <pest or weed control at 500 g/ha>
70%

$$$$
>  <MOLECULE>
Cc1ccc([C@H]2CN(C)C(=O)[C@@H]2C(=O)Nc2ccccc2F)cc1C [Compound 1038]

>  <pest or weed control at 500 g/ha>
100%

$$$$

## Task // pest or weed control at 500 g/ha lookup, key: CN1C[C@H](c2cc(F)cc(C(F)(F)F)c2)[C@@H](C(=O)Nc2cccc(Cl)c2F)C1=O [Compound 995]
## Result 90%

---

Test system: pigweed (Amaranthus retroflexus)
Assay: Test A postemergence
Assay type: in vivo
Conditions: 500 g ai/ha, postemergence; visual injury, 0 to 100 scale (0 no effect, 100 complete control), approx. 10 d
This section presents molecules with their documented Plant response rating, Pigweed values.
// no unit, no text: just the number

>  <MOLECULE>
Cc1ccc(C2CN(C)C(=O)C2C(=O)Nc2ccccc2S(C)(=O)=O)cc1 (stereo not drawn) [Compound 663]

>  <EXPERIMENTAL TARGET>
pigweed (Amaranthus retroflexus)

>  <Plant response rating, Pigweed>
20

$$$$
>  <MOLECULE>
O=C1NCC(c2ccc(I)cc2)C1C(=O)Nc1ccccc1F (racemic) [Compound 702]

>  <EXPERIMENTAL TARGET>
pigweed (Amaranthus retroflexus)

>  <Plant response rating, Pigweed>
0

$$$$
>  <MOLECULE>
O=C1NCC(c2cccc3ccccc23)C1C(=O)Nc1ccccc1C(F)(F)F (racemic) [Compound 712]

>  <EXPERIMENTAL TARGET>
pigweed (Amaranthus retroflexus)

>  <Plant response rating, Pigweed>
0

$$$$

## Task For the molecule shown here, CC(C)Oc1cccc(C2CN(C)C(=O)C2C(=O)Nc2cccc(F)c2F)c1 (stereo not drawn) [Compound 651] , give the reported Plant response rating, Pigweed.
## Result 30

## Task Returns the measured Plant response rating, Pigweed for the input molecule. Input: O=C1NCC(c2cccc3ccccc23)C1C(=O)Nc1cccc(F)c1F (racemic) [Compound 711]
## Result 0

## Task Dear colleague, I am looking for the recorded Plant response rating, Pigweed of the following molecule: Cc1ccc(C2CN(C)C(=O)C2C(=O)Nc2ccccc2C(F)(F)F)cc1 (stereo not drawn) [Compound 665]
## Result 20

---

Overview of recorded pest or weed control at 125 g/ha for various compounds
Test system: giant foxtail (Setaria faberii)
Assay: Test A postemergence
Type: in vivo
Settings: Setaria faberi, post-emergence, 240 h, 125 g ai/ha, Postemergence; visual injury after approximately 10 d; 0 to 100 scale where 0 is no effect and 100 is complete control; read-out: Plant response rating, Foxtail, Giant
Report the figure in % without appending any unit label.

Consider the reported pest or weed control at 125 g/ha for these compounds:
>  <SMILES REPRESENTATION>
CN1CC[C@H](c2cccc(Cl)c2)[C@@H](C(=O)Nc2ccccc2S(C)(=O)=O)C1=O

>  <pest or weed control at 125 g/ha, %>
0

$$$$
>  <SMILES REPRESENTATION>
COc1c(F)ccc([C@H]2CNC(=O)[C@@H]2C(=O)Nc2ccccc2S(C)(=O)=O)c1Cl

>  <pest or weed control at 125 g/ha, %>
0

$$$$
>  <SMILES REPRESENTATION>
CN1C[C@H](c2cc(C(F)(F)F)cs2)[C@@H](C(=O)Nc2ccccc2F)C1=O

>  <pest or weed control at 125 g/ha, %>
90

$$$$
>  <SMILES REPRESENTATION>
CCOc1cc([C@H]2CN(C)C(=O)[C@@H]2C(=O)Nc2cccc(F)c2F)cc(C(F)(F)F)c1

>  <pest or weed control at 125 g/ha, %>
80

$$$$
>  <SMILES REPRESENTATION>
O=C(Nc1cccc(Cl)c1F)[C@H]1C(=O)N(C2CC2)CC[C@@H]1c1ccc(F)cc1

>  <pest or weed control at 125 g/ha, %>
0

$$$$
>  <SMILES REPRESENTATION>
CN1CC[C@H](c2ccc(OC(F)(F)F)cc2)[C@@H](C(=O)Nc2ccccc2C(F)(F)F)C1=O

>  <pest or weed control at 125 g/ha, %>
0

$$$$

## Task Look up pest or weed control at 125 g/ha: O=C(Nc1ccc(F)c(F)c1F)[C@H]1C(=O)N(C2CC2)CC[C@@H]1c1ccc(F)cc1
## Result 0
